# credit: ChEMBL document CHEMBL3886540

target_desc: Cytochrome P450 3A4 (Homo sapiens, UniProt P08684)
Sequence (P08684 whole entry): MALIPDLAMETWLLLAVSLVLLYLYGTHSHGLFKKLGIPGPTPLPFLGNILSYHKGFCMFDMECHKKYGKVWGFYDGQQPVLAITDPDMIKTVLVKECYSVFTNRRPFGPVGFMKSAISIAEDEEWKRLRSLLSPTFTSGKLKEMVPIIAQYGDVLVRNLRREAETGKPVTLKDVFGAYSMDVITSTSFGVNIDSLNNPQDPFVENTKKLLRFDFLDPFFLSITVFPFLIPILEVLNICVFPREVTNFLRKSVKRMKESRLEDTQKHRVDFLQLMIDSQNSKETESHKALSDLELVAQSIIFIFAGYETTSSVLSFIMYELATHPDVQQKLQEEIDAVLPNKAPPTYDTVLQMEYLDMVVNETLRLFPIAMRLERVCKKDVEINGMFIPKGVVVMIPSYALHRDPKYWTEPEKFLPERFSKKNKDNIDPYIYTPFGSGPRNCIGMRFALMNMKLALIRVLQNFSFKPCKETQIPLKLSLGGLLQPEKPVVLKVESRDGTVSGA
assay_method_text: CYP Inhibition Assay (With Preincubation): With Preincubation: To a 96 deep well plate was added 2.5 uL of the test substance solution (x200 concentration), and 442.5 uL of Incubation Mixture, and the solution was mixed and warmed to 37° C. for 5 minutes. To this incubation solution 50 uL of 10 mM NADPH was added and preincubated at 37° C. for 30 minutes. […] After the reaction, 100 uL of the Incubation Mixture was removed, added to 150 uL of isopropanol containing IS and mixed. […] The filtrate was used for LC-MS/MS analysis.
Items are presented alongside their recorded pIC50.
Quick note: pIC50 means taking -log10 of the concentration in moles per liter.

>>> quantitative_readout("CCCCCCCC(F)(F)CCCCCC/C=C/[C@H](C(O)N[C@@H](Cc1ccc(OCCCC)cc1)C(=O)OC)[C@@](O)(CCOC)C(=O)O (some centres not stated)")
4.92

Attention now turns to another entry.
Enquiry: # value lookup — system Cytochrome P450 3A4 (Homo sapiens, UniProt P08684), readout pIC50, item CCCCCCCC(F)(F)CCCCCC/C=C/[C@H](C(O)N[C@@H](Cc1ccc(OCCCC)cc1)C(=O)O)[C@@](O)(CCOC)C(=O)O (some centres not stated)
Return: 4.93

----------
target_desc: Cytochrome P450 2C9 (Homo sapiens, UniProt P11712)
Sequence (P11712 whole entry): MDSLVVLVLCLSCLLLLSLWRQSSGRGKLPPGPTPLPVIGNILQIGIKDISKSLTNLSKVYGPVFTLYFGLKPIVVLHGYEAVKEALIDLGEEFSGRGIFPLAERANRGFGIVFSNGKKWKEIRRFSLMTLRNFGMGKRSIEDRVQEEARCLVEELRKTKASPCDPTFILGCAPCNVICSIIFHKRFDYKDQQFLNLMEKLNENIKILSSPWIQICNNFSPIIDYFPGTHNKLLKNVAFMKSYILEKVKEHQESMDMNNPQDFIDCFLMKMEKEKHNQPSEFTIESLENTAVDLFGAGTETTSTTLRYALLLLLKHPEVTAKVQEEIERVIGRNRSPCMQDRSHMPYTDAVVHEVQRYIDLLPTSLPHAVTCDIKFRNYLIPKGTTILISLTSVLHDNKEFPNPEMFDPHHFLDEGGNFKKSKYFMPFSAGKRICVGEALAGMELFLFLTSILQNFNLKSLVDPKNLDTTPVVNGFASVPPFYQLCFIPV
assay_method_text: CYP Inhibition Assay (Without Preincubation): Without Preincubation: To a 96 deep well plate was added 2.5 uL, of the test substance solution (x200 concentration), 442.5 uL of Incubation Mixture, and 5 uL of the substrate solution, and the solution was mixed and warmed to 37° C. for 5 minutes. To this incubation solution 50 uL of 10 mM NADPH was added to start the reaction, and incubated at 37° C. for 5 minutes. After the incubation, 100 uL of the Incubation Mixture was removed, added to 150 uL of isopropanol containing IS and mixed. […] The filtrate was used for LC-MS/MS analysis.
readout_kind: pIC50
Reminder that pIC50 is minus the log10 of a molar concentration.

>>> quantitative_readout("CCCCCCCC(F)(F)CCCCCC/C=C/[C@H](C(O)N[C@@H](Cc1ccc(OCCCC)cc1)C(=O)O)[C@@](O)(CCOC)C(=O)O (some centres not stated)")
4.90

# evaluate next
Enquiry: Value lookup for pIC50; key = CCCCCCCC(F)(F)CCCCCC/C=C/[C@H](C(O)N[C@@H](Cc1ccc(OCCCC)cc1)C(=O)OC)[C@@](O)(CCOC)C(=O)O (some centres not stated)
Return: 5.11
